# assay_target: DRB1*0802 (Homo sapiens, UniProt P01903+P01911, A100R/A103L/A169T/F76Y/H45Y/I96F/K41T/L162R/M171V/P40S/Q125H/Q178H/Q39Y/Q99D/R218S/R42G/S66Y/V115G/W38E)
# assay_method_text: biochemical
# Format: binding
assay_readout: IC50 (µM)
One number for each entry, in µM.

{"columns": ["compound", "unit_label", "IC50"],
 "data": [
  ["CC[C@H](C)[C@H](NC(=O)[C@@H](NC(=O)[C@@H]1CCCN1C(=O)[C@@H](NC(=O)[C@@H](NC(=O)[C@H](CC(N)=O)NC(=O)CNC(=O)[C@H](CO)NC(=O)[C@H](CS)NC(=O)[C@@H](NC(=O)[C@H](CCCCN)NC(=O)[C@@H](N)CCCNC(=N)N)C(C)C)[C@@H](C)O)[C@@H](C)O)[C@@H](C)CC)C(=O)N[C@@H](Cc1c[nH]cn1)C(=O)N[C@@H](CC(C)C)C(=O)N[C@@H](CCCCN)C(=O)O [Peptide 1601.43]", "µM", 8.06]
]}

QUERY: // query IC50 value for entry CC[C@H](C)[C@H](NC(=O)[C@@H](NC(=O)[C@@H]1CCCN1C(=O)[C@@H](NC(=O)[C@@H](NC(=O)[C@H](CC(N)=O)NC(=O)CNC(=O)[C@H](CO)NC(=O)[C@H](CS)NC(=O)[C@H](CC(C)C)NC(=O)[C@H](CCCCN)NC(=O)[C@H](CCCNC(=N)N)NC(=O)[C@H](CCCNC(=N)N)NC(=O)[C@@H](N)CCCCN)[C@@H](C)O)[C@@H](C)O)[C@@H](C)CC)C(=O)N[C@@H](Cc1c[nH]cn1)C(=O)O [Peptide 1601.16]
RESULT: 4.74

Data provenance is patent US9340577B2.
